Listed compounds paired with reported Preemergence herbicidal rating ORYSAT
- Tested on: ORYSAT (Rice, Tebonnet)
- assay procedure: Preemergence herbicidal evaluation
- Assay type: in vivo, Oryza sativa, (L.) Tebonnet
- measurement conditions: rate 0.0625 kg/ha; rated 4-5 weeks after treatment
- Excerpt: Results of herbicide evaluation are expressed on a rating scale (0-9). The scale is based upon a visual observation of plant stand, vigor, malformation, size, chlorosis and overall plant appearance as compared with a control. […] The compounds evaluated are reported by compound number given in Example 37.
Please give only the number in your answer, with no unit.

compound: Cn1c(C(F)(F)F)cc(=O)n(-c2cc(N=C3SCC(=O)N3[C@@H](Cc3ccccc3)C(=O)O)c(Cl)cc2F)c1=O
target under test: ORYSAT (Rice, Tebonnet)
Preemergence herbicidal rating ORYSAT: 1.0
//
compound: CCOC(=O)C(c1ccc(Cl)cc1)N1C(=O)CSC1=Nc1cc(-n2c(=O)cc(C(F)(F)F)n(C)c2=O)c(F)cc1Cl (racemic)
target under test: ORYSAT (Rice, Tebonnet)
Preemergence herbicidal rating ORYSAT: 1.0

Here is the next item to consider.
Query: Which Preemergence herbicidal rating ORYSAT is reported for this compound? CCOC(=O)CN1C(=O)C(Cc2ccccc2OC(C)C(=O)O)S/C1=N/c1cc(-n2c(=O)cc(C(F)(F)F)n(C)c2=O)c(F)cc1Cl (stereo not shown)
Response: 0.0

----------
- Test system: CASOB (Sicklepod)
- assay procedure: Preemergence herbicidal evaluation
- Type: in vivo, Cassia obtusifolia
- measurement conditions: rate 0.1250 kg/ha; rated 4-5 weeks after treatment
experimental endpoint: Preemergence herbicidal rating CASOB
Simply state the number, no unit and no words.

compound: Cn1c(C(F)(F)F)cc(=O)n(-c2cc(N=C3SCC(=O)N3CC(=O)OCC3CC3)c(Cl)cc2F)c1=O
target under test: CASOB (Sicklepod)
Preemergence herbicidal rating CASOB: 0.0
//
compound: CCOC(=O)CN1C(=O)C(Cc2ccccc2OC(C)C(=O)OC)SC1=Nc1cc(-n2c(=O)cc(C(F)(F)F)n(C)c2=O)c(F)cc1Cl (stereo not shown)
target under test: CASOB (Sicklepod)
Preemergence herbicidal rating CASOB: 9.0
//
compound: C#CCOC(=O)CC1SC(=Nc2cc(-n3c(=O)cc(C(F)(F)F)n(C)c3=O)c(F)cc2Cl)N(CC(=O)OCC)C1=O (stereo not shown)
target under test: CASOB (Sicklepod)
Preemergence herbicidal rating CASOB: 7.0

Let us move to another entry and its Preemergence herbicidal rating CASOB.
Query: Form field: Preemergence herbicidal rating CASOB recorded for CCCCOC(=O)CN1C(=O)CSC1=Nc1cc(-n2c(=O)cc(C(F)(F)F)n(C)c2=O)c(F)cc1Cl with CASOB (Sicklepod) (enter value)
Response: 1.0

----------
- Test system: ECHCG (Barnyardgrass)
- assay procedure: Preemergence herbicidal evaluation
- Format: in vivo, Echinochloa crus-galli
- measurement conditions: rate 0.2500 kg/ha; rated 4-5 weeks after treatment
experimental endpoint: Preemergence herbicidal rating ECHCG
Respond using a number only.

molecule: O=C(O)CC1SC(=Nc2cc(N3C(=O)C4=C(CCCC4)C3=O)c(F)cc2Cl)N(CC(=O)O)C1=O (centres unmarked) [Compound 48]
Preemergence herbicidal rating ECHCG: 0.0
--
molecule: Cn1c(C(F)(F)F)cc(=O)n(-c2cc(N=C3SCC(=O)N3CC(=O)OCC3CC3)c(Cl)cc2F)c1=O [Compound 124]
Preemergence herbicidal rating ECHCG: 0.0
--
molecule: CCOC(=O)CN1C(=O)CSC1=Nc1cc(N2C(=O)C3=C(CCCC3)C2=O)c(F)cc1Cl [Compound 47]
Preemergence herbicidal rating ECHCG: 0.0
--
molecule: CCOC(=O)CN1C(=O)C(Cc2ccccc2OC(C)C(=O)O)S/C1=N/c1cc(-n2c(=O)cc(C(F)(F)F)n(C)c2=O)c(F)cc1Cl (centres unmarked) [Compound 114]
Preemergence herbicidal rating ECHCG: 4.0
--
molecule: Cn1c(C(F)(F)F)cc(=O)n(-c2cc(N=C3SCC(=O)N3CC(=O)NS(C)(=O)=O)c(Cl)cc2F)c1=O [Compound 38]
Preemergence herbicidal rating ECHCG: 1.0
--
molecule: COC(=O)[C@H](Cc1ccc([N+](=O)[O-])cc1)N1C(=O)CSC1=Nc1cc(-n2c(=O)cc(C(F)(F)F)n(C)c2=O)c(F)cc1Cl [Compound 78]
Preemergence herbicidal rating ECHCG: 1.0

Query: Give Preemergence herbicidal rating ECHCG (ECHCG (Barnyardgrass)) of the following molecule: CCOC(=O)CN1C(=O)C(CC(=O)OCc2ccccc2)OC1=Nc1cc(-n2c(=O)cc(C(F)(F)F)n(C)c2=O)c(F)cc1Cl (centres unmarked) [Compound 40]
Response: 1.0

Query: Same for CCOC(=O)CN1C(=O)C(CC(=O)O)O/C1=N/c1cc(-n2c(=O)cc(C(F)(F)F)n(C)c2=O)c(F)cc1Cl (centres unmarked) [Compound 41]
Response: 2.0

Query: Entry CCOC(=O)CN1C(=O)C[S+]([O-])/C1=N/c1cc(-n2c(=O)cc(C(F)(F)F)n(C)c2=O)c(F)cc1Cl (centres unmarked) [Compound 45] please
Response: 0.0

Query: Record: CCOC(=O)[C@H](C)N1C(=O)CSC1=Nc1cc(-n2c(=O)cc(C(F)(F)F)n(C)c2=O)c(F)cc1Cl [Compound 76]
Response: 9.0

Query: Query Cn1c(C(F)(F)F)cc(=O)n(-c2cc(N=C3SCC(=O)N3Cc3ccco3)c(Cl)cc2F)c1=O [Compound 122] next
Response: 0.0

----------
- Tested on: ZEAMX (Corn, Field)
- assay procedure: Preemergence herbicidal evaluation
- Type: in vivo, Zea mays
- measurement conditions: rate 0.2500 kg/ha; rated 4-5 weeks after treatment
- Source text: Results of herbicide evaluation are expressed on a rating scale (0-9). The scale is based upon a visual observation of plant stand, vigor, malformation, size, chlorosis and overall plant appearance as compared with a control. […] The compounds evaluated are reported by compound number given in Example 37.
// Preemergence herbicidal rating ZEAMX lookup, one value per entry
Just the number, please.

# count of solved cases: 2
molecule: CCOC(=O)CN1C(=O)C(CC(=O)O)SC1=Nc1cc(-n2nc(C)n(C(F)F)c2=O)c(F)cc1Cl (stereo not drawn)
Preemergence herbicidal rating ZEAMX: 4.0
--
molecule: CCOC(=O)CN1C(=O)C(Cl)SC1=Nc1cc(-n2c(=O)cc(C(F)(F)F)n(C)c2=O)c(F)cc1Cl (stereo not drawn)
Preemergence herbicidal rating ZEAMX: 4.0

Next:
Query: Lab request: please report Preemergence herbicidal rating ZEAMX under test system ZEAMX (Corn, Field) for CCCCOC(=O)CN1C(=O)CSC1=Nc1cc(-n2c(=O)cc(C(F)(F)F)n(C)c2=O)c(F)cc1Cl
Response: 4.0

----------
- Test system: AMBEL (Ragweed, Common)
- assay procedure: Preemergence herbicidal evaluation
- Format: in vivo, Ambrosia artemisifolia
- measurement conditions: preemergence, 0.1250 kg/ha, rated 4-5 weeks after treatment, 0-9 scale
experimental endpoint: AMBEL rating
Field format: numeric only.

compound: CCOC(=O)CN1C(=O)C(CC(=O)NS(=O)(=O)CC)SC1=Nc1cc(-n2c(=O)cc(C(F)(F)F)n(C)c2=O)c(F)cc1Cl (stereo not drawn)
AMBEL rating: 0.0

compound: C=CCN1C(=O)C(CC(N)=O)SC1=Nc1cc(-n2c(=O)cc(C(F)(F)F)n(C)c2=O)c(F)cc1Cl (stereo not drawn)
AMBEL rating: 9.0

Query: Looking for the measured AMBEL rating of CCOC(=O)CN1C(=O)C(CC(=O)NS(=O)(=O)c2ccccc2)SC1=Nc1cc(-n2c(=O)cc(C(F)(F)F)n(C)c2=O)c(F)cc1Cl (stereo not drawn) , can you help?
Response: 1.0

Query: Please give the result for CCOC(=O)CN1C(=O)C(CC(=O)OC(C)C(=O)OCC)S/C1=N/c1cc(-n2c(=O)cc(C(F)(F)F)n(C)c2=O)c(F)cc1Cl (stereo not drawn) too.
Response: 0.0

Query: Another compound to look at: COC(=O)CC1SC(=Nc2cc(-n3c(=O)cc(C(F)(F)F)n(C)c3=O)c(F)cc2Cl)N(C)C1=O (stereo not drawn)
Response: 9.0

Query: Next entry: C=CCN1C(=O)C(CC(=O)OC(C)C(=O)OCC)SC1=Nc1cc(-n2c(=O)ccn(C)c2=O)c(F)cc1Cl (stereo not drawn)
Response: 9.0

----------
- System: ECHORC (Watergrass (Calif.))
- assay procedure: Preemergence weed control under flooded paddy conditions
- Format: in vivo, Echinochloa oryzoides
- measurement conditions: 0.0313 kg/ha, rated 3-4 weeks after treatment
experimental endpoint: herbicidal effect rating, ECHORC
Would you mind answering with just the numeric figure?

Example cases with answers are listed next.
molecule: C=CCN1C(=O)C(CC(=O)NO)SC1=Nc1cc(-n2c(=O)cc(C(F)(F)F)n(C)c2=O)c(F)cc1Cl (stereo not drawn) [Compound 161]
assay result: 0.0
--
molecule: CCOC(=O)CN1C(=O)C(CC(=O)NS(=O)(=O)C(C)C)SC1=Nc1cc(-n2c(=O)cc(C(F)(F)F)n(C)c2=O)c(F)cc1Cl (stereo not drawn) [Compound 117]
assay result: 0.0

Please find the next molecule below.
Query: # lookup: herbicidal effect rating, ECHORC of C#CC(C)N1C(=O)CSC1=Nc1cc(-n2c(=O)cc(C(F)(F)F)n(C)c2=O)c(F)cc1Cl (stereo not drawn) [Compound 165]
Response: 9.0

Values compiled from patent US20020137929A1.
